# measurement_protocol: Human HepG2 cell viability assay in 384 well format
# Assay type: toxicity, cell-based
# Set-up: dose 125 nL, time 70.5 hour; concentration not given beside the values
# test_parameters: HepG2 cells, read-out: Inhibition
experimental_endpoint: cytotoxicity at 70.5 h (%)
Answers are plain numbers, in %.

Example molecules with recorded cytotoxicity at 70.5 h:
molecule	uom	cytotoxicity at 70.5 h
Cc1noc(C)c1CCCNC(=O)C1CCCN(C(=O)C2CC2)C1 (stereo unspecified)	%	-0.841
Cc1ccc(N2C[C@H](C(=O)N3CCOCC3)[C@@H]3CCO[C@@H]3C2)nn1	%	-11.3

Quick batch: cytotoxicity at 70.5 h for everything below.
1. Cc1nc(-c2ccccc2)sc1CSCCC(N)=O
2. CCC(CC)(CCO)CNC(=O)c1ccon1
3. CNC(=O)CN1CCC(CN(C)Cc2ccncc2Cl)CC1
4. C=C(C)CN(c1cn[nH]c1)S(=O)(=O)c1cccc(C#N)c1
5. COc1cc(C(C)=O)ccc1SCC(=O)Nc1cccc(C)n1

Result string:
12.1
-8.6
-3.24
-5.38
-19.2

Quick batch: cytotoxicity at 70.5 h for everything below.
1. O=C(CCn1ccccc1=O)Nc1ccc(I)cc1
2. COc1ccc(CNC(=O)Cc2csc(C(C)=O)c2)cc1
3. Cc1cc2ccccc2n1CCC(=O)NCCS(C)(=O)=O
4. CCc1c(C)nc(-n2nc(-c3cccs3)cc2N)[nH]c1=O
5. CC(C)(C)NC(=O)Cn1c(=O)n(Cc2ccco2)c2ncccc21

Result string:
1: -10.5; 2: -8.65; 3: -10.9; 4: -5.27; 5: -3.69

Quick batch: cytotoxicity at 70.5 h for everything below.
1. CCn1cc(CN2CCCN(C(=O)c3ccn(C)c(=O)c3)CC2)cn1
2. Cc1ccc(CN2CCN(Cc3ccc4nonc4c3)CC2=O)cc1

Result string:
[20.6, 1.65]

Quick batch: cytotoxicity at 70.5 h for everything below.
1. CCC(C)CS(=O)(=O)NCCc1csc(N2CCCC2)n1 (stereo unspecified)
2. COc1ccc2c(c1)OCC(CNC1CCc3ncnn3C1)=C2 (stereo unspecified)

Result string:
1: -1.21; 2: -0.263
